# system name: JAK2 (Homo sapiens, UniProt O60674)
# Construct: made in house; host or cells: SF9 insect cells (baculovirus)
# Sequence (O60674 812-1132): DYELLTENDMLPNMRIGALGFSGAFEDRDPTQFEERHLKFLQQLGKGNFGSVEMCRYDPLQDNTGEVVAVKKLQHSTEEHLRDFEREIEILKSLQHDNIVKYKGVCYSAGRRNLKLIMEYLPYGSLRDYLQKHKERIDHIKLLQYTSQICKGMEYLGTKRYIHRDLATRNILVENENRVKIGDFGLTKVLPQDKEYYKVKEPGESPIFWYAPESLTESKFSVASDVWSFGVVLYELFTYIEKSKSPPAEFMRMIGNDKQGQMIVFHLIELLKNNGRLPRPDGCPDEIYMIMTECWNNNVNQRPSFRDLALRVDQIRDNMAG
# test description: JAK2 inhibition (Table 4)
# Type: biochemical
# measurement setup: read-out: JAK2 Ki
Class (required): determined from Ki; valid ranges are low value = under 30 nM, medium value = from 30 nM up to 400 nM, high value = 400 nM and over

Observe how each entry below is paired with its result.
CC(C)C(=O)N[C@H]1CC[C@H](n2cnc3cnc4[nH]ccc4c32)CC1 [Example 571] : low value
OCCc1nc2cnc3[nH]ccc3c2n1[C@@H]1CCCNC1 [Example 16] : high value
CCCS(=O)(=O)N1CCC(n2c(CC(N)=O)nc3cnc4[nH]ccc4c32)CC1 [Example 117] : high value
CC(O)c1nc2cnc3[nH]ccc3c2n1C1CCN(CCC(F)(F)F)CC1 (centres unmarked) [Example 759] : medium value
c1ccc(CN2CCC(n3c(C4CCOCC4)nc4cnc5[nH]ccc5c43)CC2)cc1 [Example 154] : low value
C[C@@H](O)c1nc2cnc3[nH]ccc3c2n1C1CCC(NCC(F)F)CC1 (some centres unmarked) [Example 1002] : low value
CC(C)(C#N)c1nc2cnc3[nH]ccc3c2n1C1CCN(Cc2cnccn2)CC1 [Example 164] : medium value
C[C@]1(O)CC[C@H](n2nnc3cnc4[nH]ccc4c32)CC1 [Example 713] : low value

Ask | Into which bin does this compound go? C[C@@H](O)c1nc2cnc3[nH]ccc3c2n1[C@H]1CC[C@H](C#N)CC1 [Example 641]
Reply | medium value

Ask | Just checking, what class would you give COCCNC1CCC(n2c(C)nc3cnc4[nH]ccc4c32)C1 (racemic) [Example 628] here?
Reply | medium value

Ask | For the record c1cc2c(ncc3ncn([C@H]4CC[C@H](NCC5CC5)CC4)c32)[nH]1 [Example 574] , report the class its Ki corresponds to.
Reply | medium value

Ask | Place this compound in its band: CC(C)(O)[C@H]1CC[C@H](n2cnc3cnc4[nH]ccc4c32)CC1 [Example 148]
Reply | low value

Ask | # classify by Ki band: C[C@@H](O)c1nc2cnc3[nH]ccc3c2n1[C@@H]1CCCN(C(=O)CCn2ccnc2)C1 [Example 797]
Reply | high value

====

# system name: JAK2 (Homo sapiens, UniProt O60674)
# Construct: made in house; host or cells: SF9 insect cells (baculovirus)
# test description: JAK2 inhibition (Table 4)
# Type: biochemical
# measurement setup: read-out: JAK2 Ki
pKi: −log10 of the molar value.
Label yes when pKi is at or above 7; otherwise label no.

C[C@@H](O)c1nc2cnc3[nH]ccc3c2n1N1CCCCC1 : yes
CC(C)CC(=O)NC1CCC(n2nnc3cnc4[nH]ccc4c32)CC1 (stereo not shown) : yes
COC(=O)N1CCC(n2c([C@@H](C)O)nc3cnc4[nH]ccc4c32)CC1 : no

Ask | Is it the case that Cc1nc2cnc3[nH]ccc3c2n1C1CCC(NC(=O)OC(C)(C)C)C1 (racemic) has pKi reaching or exceeding 7?
Reply | yes

Ask | Form field: pKi at least 7? Entry: CC1CN(Cc2cncnc2)CCC1n1cnc2cnc3[nH]ccc3c21 (racemic) [Example 343]
Reply | yes

Ask | Hello, I need to know if "Cc1nc2cnc3[nH]ccc3c2n1[C@H]1CC[C@H](OC(=O)N(C)C)CC1" has measured pKi not below 7. Thanks!
Reply | yes

Ask | Does the reported pKi for FC1CNCCC1n1nnc2cnc3[nH]ccc3c21 (racemic) [Example 518] fall at or above the 7 mark?
Reply | no

====

# system name: JAK3 (Homo sapiens, UniProt P52333)
# Construct: made in house; host or cells: SF9 insect cells (baculovirus)
# Sequence (P52333 783-1124): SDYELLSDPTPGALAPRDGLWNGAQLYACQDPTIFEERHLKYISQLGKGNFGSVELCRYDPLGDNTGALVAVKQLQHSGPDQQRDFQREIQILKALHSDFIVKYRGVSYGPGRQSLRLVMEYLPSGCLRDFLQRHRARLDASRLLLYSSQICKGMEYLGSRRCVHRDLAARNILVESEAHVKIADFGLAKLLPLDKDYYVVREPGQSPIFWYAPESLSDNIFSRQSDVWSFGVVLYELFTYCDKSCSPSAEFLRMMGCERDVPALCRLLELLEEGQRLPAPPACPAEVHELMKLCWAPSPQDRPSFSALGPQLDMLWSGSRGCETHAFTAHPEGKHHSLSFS
# test description: JAK3 inhibition (Table 4)
# Assay type: biochemical
# measurement setup: read-out: JAK3 Ki
property label: Ki (nM)
One number for each entry, in nM.

CCOC(=O)N1CCC(n2c([C@@H](C)O)nc3cnc4[nH]ccc4c32)CC1 : 383
c1nc2c([nH]1)CCC(n1cnc3cnc4[nH]ccc4c31)C2 (racemic) : 112

Notebook: "CC(C)(C)OC(=O)N[C@H]1CC[C@H](n2cnc3cnc4[nH]ccc4c32)CC1" , Ki read as 132

====

# system name: JAK3 (Homo sapiens)
# Construct: made in house; host or cells: SF9 insect cells (baculovirus)
# test description: JAK3 inhibition (Table 4)
# Format: biochemical
# measurement setup: read-out: JAK3 Ki
Give measured Ki for each item. Keep answers brief.
One number for each entry, in µM.

Example molecules with recorded Ki:
O=C(CN1CCC[C@@H](n2cnc3cnc4[nH]ccc4c32)C1)c1ccccc1 : 0.118
CC(C)N1CCC(n2cnc3cnc4[nH]ccc4c32)CC1 : 3.49
CN(C)C(=O)N[C@H]1CC[C@H](n2cnc3cnc4[nH]ccc4c32)CC1 : 0.237
c1ccc(CN2CCC(n3nnc4cnc5[nH]ccc5c43)CC2)cc1 : 0.0683

Quick request: Ki for each listed item, please.
1. Cc1nc2cnc3[nH]ccc3c2n1[C@@H]1C[C@@H]2CC[C@H]1O2 (relative stereo)
2. CS(=O)(=O)N1CCC[C@@H](n2cnc3cnc4[nH]ccc4c32)C1
3. Cc1nc2cnc3[nH]ccc3c2n1[C@H]1CC[C@@H](C(C)(C)O)CC1
4. CNC(=O)c1nc2cnc3[nH]ccc3c2n1C1CCN(Cc2ccccc2)CC1
5. OC1(C2CC2)CCC(n2cnc3cnc4[nH]ccc4c32)CC1 (centres unmarked) [Example 995]
6. CCn1cc(CN2CCC(n3c([C@@H](C)O)nc4cnc5[nH]ccc5c43)CC2)c(C)n1

Reply |
[0.0115, 0.0166, 0.0368, 0.0326, 0.0741, 1.32]

Hi! Can you tell me Ki for each of these molecules?
1. OCCN1CC[C@@H](n2cnc3cnc4[nH]ccc4c32)C1
2. OCc1nc2cnc3[nH]ccc3c2n1C1CCNCC1(F)F (racemic)
3. COCCN1CCC(n2c(C(C)O)nc3cnc4[nH]ccc4c32)CC1 (racemic)
4. c1ccc(CN2CCC(n3c(C4CCC4)nc4cnc5[nH]ccc5c43)CC2)cc1
5. CCN1CCC(n2c(CO)nc3cnc4[nH]ccc4c32)C(F)(F)C1 (racemic)
6. O=C1CCC(n2cnc3cnc4[nH]ccc4c32)CN1 (racemic)

Reply |
[1.49, 0.00595, 0.0974, 0.0195, 0.00597, 2.28]

====

# system name: JAK3 (Homo sapiens, UniProt P52333)
# Construct: made in house; host or cells: SF9 insect cells (baculovirus)
# test description: JAK3 inhibition (Table 4)
# Assay type: biochemical
# measurement setup: read-out: JAK3 Ki
property label: pKi
Give bare numbers, as −log10 of the molar value.

Consider the worked cases shown below.
O=C(CC(F)(F)F)NC1CCC(n2nnc3cnc4[nH]ccc4c32)C1 (racemic) : 7.51
OCc1nc2cnc3[nH]ccc3c2n1C1CCOCC1 : 7.29

Continue with the molecule presented below.
Sample "N#CCCN1[C@@H]2CC[C@H]1C[C@H](n1cnc3cnc4[nH]ccc4c31)C2" ; pKi observed: 7.93

====

# system name: JAK2 (Homo sapiens)
# Construct: made in house; host or cells: SF9 insect cells (baculovirus)
# test description: JAK2 inhibition (Table 4)
# Format: biochemical
# measurement setup: read-out: JAK2 Ki
property label: Ki
A complete answer gives the number and then names the unit.

Please review the following examples before continuing.
Cc1nc2cnc3[nH]ccc3c2n1[C@@H]1CC[C@@H](NCC(F)(F)F)C1 [Example 720] : 18.3 nM
CCOC(=O)N1CCC(n2c([C@@H](C)O)nc3cnc4[nH]ccc4c32)CC1 [Example 927] : 613 nM
CC(C)(C)OC(=O)N1CCC(n2cnc3cnc4[nH]ccc4c32)CC1 [Example 124] : 33.2 nM
COCCNC1CCC(n2cnc3cnc4[nH]ccc4c32)C1 (racemic) [Example 726] : 785 nM
CC(C)c1nc2cnc3[nH]ccc3c2n1C1CCN(CCC#N)CC1 [Example 281] : 25.1 nM

// input: 5 molecules below; output: Ki for each
1. N#CCC1(N2CCC(n3cnc4cnc5[nH]ccc5c43)CC2)COC1 [Example 195]
2. C[C@@H](O)c1nc2cnc3[nH]ccc3c2n1[C@@H]1CCCN(C(=O)CC(F)(F)F)C1 [Example 785]
3. O=C(C1CCC1)N1CCC[C@@H](n2cnc3cnc4[nH]ccc4c32)C1 [Example 315]
4. N#Cc1ccc(N2CCC(n3cnc4cnc5[nH]ccc5c43)CC2)nc1 [Example 95]
5. CN(CC(F)(F)F)C(=O)NC1CCC(n2nnc3cnc4[nH]ccc4c32)C1 (racemic) [Example 622]

Reply |
1: 1.13 nM; 2: 373 nM; 3: 6.28 nM; 4: 35.4 nM; 5: 12.4 nM

====

# system name: JAK2 (Homo sapiens)
# Construct: made in house; host or cells: SF9 insect cells (baculovirus)
# test description: JAK2 inhibition (Table 4)
# Assay type: biochemical
# measurement setup: read-out: JAK2 Ki
property label: pKi
Answers are plain numbers, as −log10 of the molar value.

Consider the reported pKi for these compounds:
CNc1nc2cnc3[nH]ccc3c2n1C1CCN(S(C)(=O)=O)CC1 : 7.08
CO[C@H](C)c1nc2cnc3[nH]ccc3c2n1C1CCCCC1 : 6.94
CN(CC(F)(F)F)C(=O)NC1CCC(n2cnc3cnc4[nH]ccc4c32)C1 (racemic) : 8.07
CN(C)C(=O)CN1CCC(n2cnc3cnc4[nH]ccc4c32)CC1 : 7.40
Cc1nc2cnc3[nH]ccc3c2n1[C@H]1CC[C@@H](C(=O)O)CC1 : 7.09
Cn1cc(CN2CCC(n3cnc4cnc5[nH]ccc5c43)CC2)cn1 : 7.15
CC(C)CC(=O)N1CCC[C@@H](n2c([C@@H](C)O)nc3cnc4[nH]ccc4c32)C1 : 5.64
CN(C)C(=O)CNC(=O)Cc1nc2cnc3[nH]ccc3c2n1C1CCCOC1 (racemic) : 6.91

For each of the items listed, what is its pKi?
1. CC1(n2cnc3cnc4[nH]ccc4c32)CCN(Cc2cccc(C#N)c2)CC1
2. C[C@@H](O)c1nc2cnc3[nH]ccc3c2n1C1CCOCC1
3. Cc1nc2cnc3[nH]ccc3c2n1C1CCc2[nH]ncc2C1 (racemic)

Reply |
6.54
6.55
8.20
